# system_name: MDM2 (Homo sapiens, UniProt Q00987)
# Construct: ubiquitination of endogenous MDM2 in EU-1 cells; endogenous in cells; host or cells: EU-1 (ALL) cells
# Sequence (Q00987 whole entry): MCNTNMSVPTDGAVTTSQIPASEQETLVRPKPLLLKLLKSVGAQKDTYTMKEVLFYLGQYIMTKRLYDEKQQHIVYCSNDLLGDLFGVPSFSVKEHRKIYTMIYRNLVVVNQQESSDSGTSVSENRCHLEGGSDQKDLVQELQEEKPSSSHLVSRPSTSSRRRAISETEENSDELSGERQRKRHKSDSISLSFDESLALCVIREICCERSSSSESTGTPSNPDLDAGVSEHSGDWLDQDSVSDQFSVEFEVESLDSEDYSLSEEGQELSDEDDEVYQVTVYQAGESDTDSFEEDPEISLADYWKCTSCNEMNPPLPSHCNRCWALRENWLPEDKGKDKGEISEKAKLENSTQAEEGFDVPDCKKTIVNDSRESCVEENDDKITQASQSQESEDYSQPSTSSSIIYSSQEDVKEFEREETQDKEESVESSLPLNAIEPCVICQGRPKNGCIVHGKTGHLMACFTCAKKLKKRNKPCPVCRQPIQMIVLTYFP
# protocol_text: MDM2 reduction / expression (Western blot)
# Format: cell-based
# settings: words or +/− grades, key not given
assay_endpoint: MDM2 reduction

# molecule, assay_endpoint, recorded_result
records = [
    ("CC(=O)c1cccc(C2CC(=O)c3cc(S(=O)(=O)Nc4ccc5c(c4)CCO5)ccc3N2)c1 (stereo not drawn) [Compound 69L123]", "MDM2 reduction", "inhibition"),
    ("CC(C)C(=O)c1ccc(C2CC(=O)c3cc(S(=O)(=O)Nc4ccc(Cl)c(Cl)c4)ccc3N2)cc1 (stereo not drawn) [Compound 69L100]", "MDM2 reduction", "No MDM2"),
    ("Cc1ccc(NS(=O)(=O)c2ccc3c(c2)[C@H]2C=CC[C@H]2[C@H](c2ccc(C(=O)C(C)C)cc2)N3)cc1C [Compound 69L80]", "MDM2 reduction", "No MDM2"),
    ("Cc1ccc(NS(=O)(=O)c2ccc3c(c2)C2OCC[C@H]2C2(CCCCC2)N3)cc1C (stereo partly drawn) [Compound 69L62]", "MDM2 reduction", "No MDM2"),
    ("CC(=O)c1ccc([C@@H]2Nc3ccc(S(=O)(=O)Nc4ccc(C)c(C)c4)cc3[C@H]3C=CC[C@H]32)cc1 [Compound 69L48]", "MDM2 reduction", "inhibition"),
    ("CC(=O)c1cccc(NS(=O)(=O)c2ccc3c(c2)C(=O)CC(c2ccc(C(=O)C(C)C)cc2)N3)c1 (stereo not drawn) [Compound 69L113]", "MDM2 reduction", "inhibition"),
]

**Query** For Cc1cccc(NS(=O)(=O)c2ccc3c(c2)[C@H]2OCC[C@H]2[C@H](c2ccc(C(=O)C(C)C)cc2)N3)c1 [Compound 69L95] , what is its reported MDM2 reduction?
**Result** inhibition

**Query** Repeat for the following molecule: O=S(=O)(Nc1ccc2c(c1)CCCC2)c1ccc2c(c1)C1OCC[C@H]1[C@H](C1CCCCC1)N2 (stereo partly drawn) [Compound 69L59]
**Result** No MDM2
